Record form. Attribute: residual activity. Fill in for each entry.
- Study System: SLK (human) (UniProt Q9H2G2)
- Sequence (Q9H2G2 whole entry, looked up): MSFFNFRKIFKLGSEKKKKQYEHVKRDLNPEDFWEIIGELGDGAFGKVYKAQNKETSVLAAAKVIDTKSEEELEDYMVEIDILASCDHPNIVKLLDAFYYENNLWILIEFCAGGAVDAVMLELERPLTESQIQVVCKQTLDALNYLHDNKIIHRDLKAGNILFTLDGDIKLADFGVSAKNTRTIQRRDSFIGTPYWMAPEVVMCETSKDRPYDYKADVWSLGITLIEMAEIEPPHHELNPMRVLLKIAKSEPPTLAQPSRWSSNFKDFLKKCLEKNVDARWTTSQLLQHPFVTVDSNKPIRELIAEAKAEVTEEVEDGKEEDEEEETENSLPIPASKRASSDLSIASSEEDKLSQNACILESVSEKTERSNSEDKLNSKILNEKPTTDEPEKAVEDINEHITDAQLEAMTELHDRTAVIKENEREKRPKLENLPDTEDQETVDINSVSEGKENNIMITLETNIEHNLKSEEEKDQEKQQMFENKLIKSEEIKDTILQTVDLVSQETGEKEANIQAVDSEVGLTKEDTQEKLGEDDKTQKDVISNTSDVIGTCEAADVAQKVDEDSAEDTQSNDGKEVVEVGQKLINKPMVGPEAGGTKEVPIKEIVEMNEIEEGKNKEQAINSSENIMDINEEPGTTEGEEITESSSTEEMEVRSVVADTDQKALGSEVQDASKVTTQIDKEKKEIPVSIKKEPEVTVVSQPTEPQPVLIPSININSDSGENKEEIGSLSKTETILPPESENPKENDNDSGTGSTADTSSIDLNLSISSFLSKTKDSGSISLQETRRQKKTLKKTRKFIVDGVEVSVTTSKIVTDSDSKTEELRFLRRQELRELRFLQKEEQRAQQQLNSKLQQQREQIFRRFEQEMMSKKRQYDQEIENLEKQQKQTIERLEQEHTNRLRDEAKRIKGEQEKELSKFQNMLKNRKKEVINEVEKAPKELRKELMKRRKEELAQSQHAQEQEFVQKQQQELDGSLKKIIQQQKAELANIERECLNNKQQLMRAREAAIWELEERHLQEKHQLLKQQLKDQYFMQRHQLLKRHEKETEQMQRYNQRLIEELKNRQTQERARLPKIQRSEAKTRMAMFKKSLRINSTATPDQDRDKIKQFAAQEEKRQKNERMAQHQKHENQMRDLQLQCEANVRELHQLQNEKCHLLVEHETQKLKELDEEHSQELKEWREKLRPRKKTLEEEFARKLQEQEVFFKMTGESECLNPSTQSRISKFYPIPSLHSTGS
- Assay Details: radiometric filter-binding kinase assay, Kinase HotSpot
- Experimental Context: compound 0.5 µM; ATP 10 µM
Answers are plain numbers, in %.

// worked examples, residual activity included
[[record]]
line_notation = "CN(C)CCCn1cc(C2=C(c3c[nH]c4ccccc34)C(=O)NC2=O)c2ccccc21"
quantitative_result = 45.8

[[record]]
line_notation = "COc1ccc(S(=O)(=O)N(CCO)c2ccccc2CN(C)C/C=C/c2ccc(Cl)cc2)cc1"
quantitative_result = 103

[[record]]
line_notation = "O=C1C(Cl)=C(N2C(=O)CCC2=O)C(=O)c2ccccc21"
quantitative_result = 104

[[record]]
line_notation = "CCCCc1c(-c2ccc(OC)cc2)[nH]c2nccnc12"
quantitative_result = 76.2

[[record]]
line_notation = "CC(C)(C)c1cc(C=C(C#N)C#N)cc(Br)c1O"
quantitative_result = 94.7


Report residual activity for every entry below.
1. N#C/C(=C\c1ccc(O)c(O)c1)C(=O)NCc1ccccc1
2. COc1cc(Nc2c(C#N)cnc3cc(OCCCN4CCN(C)CC4)c(OC)cc23)c(Cl)cc1Cl
3. N#Cc1c[nH]c2c[nH]/c(=N\Cc3cccnc3)cc2/c1=N\c1ccc(F)c(Cl)c1
4. NC(=O)c1cccc(-c2cc(Nc3ccc(OC(F)(F)F)cc3)ncn2)c1
5. CS(=O)(=O)CCNCc1ccc(-c2ccc3ncnc(Nc4ccc(OCc5cccc(F)c5)c(Cl)c4)c3c2)o1
6. COc1cc2ncnc(Nc3ccc(Oc4ccccc4)cc3)c2cc1OC

Result block:
[99.1, 21.6, 86.6, 98.2, 85.1, 88.7]

Value sought for every listed compound: residual activity.
1. Ic1cccc(CSc2nnc(-c3ccncc3)o2)c1
2. O=C1c2ccccc2-c2nc3nnnn3nc21
3. COc1ccc2c(c1)/C(=C/c1cnc[nH]1)C(O)=N2
4. Fc1ccc(-c2nc3n(c2-c2ccncc2)CCS3)cc1
5. CO[C@@H]1[C@H](N(C)C(=O)c2ccccc2)C[C@H]2O[C@]1(C)n1c3ccccc3c3c4c(c5c6ccccc6n2c5c31)C(=O)NC4
6. Cc1cncc2cccc(S(=O)(=O)N3CCCN(C(=O)CN)C[C@H]3C)c12

Result block:
[98.6, 92.4, 81.9, 110, 30.5, 90.4]
